Entry source: ChEMBL document CHEMBL1124363

# Species: Rattus norvegicus
# MEASUREMENT DESCRIPTION: Antidiuretic activity of compound was assayed on water-loaded rats
# Type: functional, Urine
Where a SMILES comes first, the peptide text is derived from it.
Listed here: items and their measured Antidiuretic activity.
Quick note: give the figure in U/mg, leave out the unit.

I am curious: what Antidiuretic activity value has been reported for CC[C@H](C)[C@@H]1NC(=O)[C@H](Cc2ccccc2)NC(=O)[C@@H](N)CSSC[C@@H](C(=O)N2CCC[C@H]2C(=O)N[C@@H](CCCN=C(N)N)C(=O)N[C@@H](Cc2ccc(O)c(I)c2)C(N)=O)NC(=O)[C@H](CC(N)=O)NC(=O)[C@H](CCC(N)=O)NC1=O (HELM PEPTIDE1{C.F.I.Q.N.C.P.R.[O=C([C@H](Cc1ccc(O)c(I)c1)N[*:1])[*:2]].[am]}$PEPTIDE1,PEPTIDE1,1:R3-6:R3$$$V2.0) ?
0.41

Okay, and CC[C@H](C)[C@@H]1NC(=O)[C@H](Cc2ccc(O)cc2)NC(=O)[C@@H](N)CSSC[C@@H](C(=O)N2CCC[C@H]2C(=O)N[C@@H](CCCN=C(N)N)C(=O)NCC(N)=O)NC(=O)[C@H](CC(N)=O)NC(=O)[C@H](CCC(N)=O)NC1=O [VASOTOCIN] (HELM PEPTIDE1{C.Y.I.Q.N.C.P.R.G.[am]}$PEPTIDE1,PEPTIDE1,1:R3-6:R3$$$V2.0) ?
231

Okay, and CC[C@H](C)[C@@H]1NC(=O)[C@H](Cc2ccc(O)cc2)NC(=O)CCSSC[C@@H](C(=O)N2CCC[C@H]2C(=O)N[C@@H](CCCN=C(N)N)C(=O)N[C@@H](Cc2ccc(N=[N+]=[N-])cc2)C(N)=O)NC(=O)[C@H](CC(N)=O)NC(=O)[C@H](CCC(N)=O)NC1=O (HELM PEPTIDE1{[O=C(CCS[*:3])[*:2]].Y.I.Q.N.C.P.R.[[N-]=[N+]=Nc1ccc(C[C@H](N[*:1])C(=O)[*:2])cc1].[am]}$PEPTIDE1,PEPTIDE1,1:R3-6:R3$$$V2.0) ?
40

Okay, and CC[C@H](C)[C@@H]1NC(=O)[C@H](Cc2ccc(O)cc2)NC(=O)[C@@H](N)CSSC[C@@H](C(=O)N2CCC[C@H]2C(=O)N[C@@H](CCCN=C(N)N)C(=O)N[C@@H](Cc2ccc(O)cc2)C(N)=O)NC(=O)[C@H](CC(N)=O)NC(=O)[C@H](CCC(N)=O)NC1=O (HELM PEPTIDE1{C.Y.I.Q.N.C.P.R.Y.[am]}$PEPTIDE1,PEPTIDE1,1:R3-6:R3$$$V2.0) ?
25
